# ASSAY TARGET: protein-protein interaction between SOS1 and KRAS G12C (Homo sapiens, UniProt P01116, C118S/C51S/C80L/G12C)
# Construct: His6 (N)
# Sequence (P01116 1-169 isoform P01116-2 G12C/C51S/C80L/C118S): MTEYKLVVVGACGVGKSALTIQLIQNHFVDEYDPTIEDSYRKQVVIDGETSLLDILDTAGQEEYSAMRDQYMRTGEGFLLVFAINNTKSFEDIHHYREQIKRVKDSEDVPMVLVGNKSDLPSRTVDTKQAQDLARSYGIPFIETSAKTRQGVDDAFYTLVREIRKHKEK
# ASSAY COMMENT: KRAS::SOS1 AlphaScreen binding assay
# CONDITION CONTEXT: Table 37
pIC50: −log10 of the molar value.
MEASURED ENDPOINT: pIC50

INSERT INTO assay_data (given_smiles, result_number) VALUES
  ('COC/C=C/C(=O)N1CCN(c2cc(-c3noc([C@@]4(C)CCCc5sc(N)c(C#N)c54)n3)nc(O[C@@H](C)[C@@H]3CCCN3C)n2)CC1', 7.80),
  ('COC/C=C/C(=O)N1CCC(Oc2cc(O[C@@H](C)[C@@H]3CCCN3C)nc(-c3noc([C@@]4(C)CCCc5sc(N)c(C#N)c54)n3)c2)CC1', 8.30);

I. COC/C=C\C(=O)N1CCN(c2cc(O[C@@H](C)[C@@H]3CCCN3C)nc(-c3noc([C@@]4(C)CCCc5sc(N)c(C#N)c54)n3)n2)CC12CC2
II. C[C@H](Oc1nc(-c2noc([C@@]3(C)CCCc4sc(N)c(C#N)c43)n2)cc(N2CCN(C(=O)/C=C/CN3CCOCC3)CC2)n1)[C@@H]1CCCN1C
III. COC/C=C/C(=O)N1CCN(c2cc(-c3noc([C@@]4(C)CCCc5sc(N)c(C#N)c54)n3)nc(O[C@@H](C)[C@@H]3CCCN3C)n2)CC12CC2
Ascending sort, pIC50. In your reply, arrange the labels in the requested order.
I, III, II

1. C/C=C/C(=O)N1CCN(c2cc(-c3noc([C@@]4(C)CCCc5sc(N)c(C#N)c54)n3)nc(O[C@@H](C)[C@@H]3CCCN3C)n2)CC1
2. C/C=C/C(=O)N1CCN(c2cc(-c3noc([C@@]4(C)CCCc5sc(N)c(C#N)c54)n3)nc(O[C@@H](C)[C@@H]3CCCN3C)n2)CC12CC2
Of the pair 1 and 2 , name the member with the lesser recorded pIC50. State your choice using its label.
2
(2: 7.66, 1: 8.00)

Where these numbers come from: patent US20230212164A1
